- conditionSummary: pH 6.8
quantity: PAMPA/%R membrane retention (%)
Respond numerically; units are % and should not be typed.

Sample records with PAMPA/%R membrane retention:
| compound | numericResult |
| --- | --- |
| C=CC(=O)Nc1cc(-n2c(=O)ccc3cnc4ccc(-c5cccc(NS(C)(=O)=O)c5)cc4c32)ccc1C [JS15] | 17 |
| CC=CC(=O)Nc1cc(-n2c(=O)ccc3cnc4ccc(-c5ccc(NS(C)(=O)=O)cc5)cc4c32)ccc1C [JS10] | 33 |
| C=CC(=O)Nc1cc(-n2c(=O)ccc3cnc4ccc(N5CCOCC5)cc4c32)ccc1C [JS21] | 19 |

Per the record, COC(=O)C=CCNc1cc(-n2c(=O)ccc3cnc4ccc(-c5ccc(NS(C)(=O)=O)cc5)cc4c32)ccc1C (mixture of isomers) [JS13] has PAMPA/%R membrane retention of 30

Just so you know, measured PAMPA/%R membrane retention for C=CC(=O)Nc1cc(C)cc(-n2c(=O)ccc3cnc4cc(-c5ccc(NS(C)(=O)=O)cc5)ccc4c32)c1 [JS25] came out at 10

Input CC(C)=CC(=O)Nc1cc(-n2c(=O)ccc3cnc4ccc(-c5ccc(NS(C)(=O)=O)cc5)cc4c32)ccc1C [JS11] . Output PAMPA/%R membrane retention: 54

Reported PAMPA/%R membrane retention ( C=CC(=O)Nc1cc(-n2c(=O)ccc3cnc4ccc(-c5ccc(C#N)nc5)cc4c32)ccc1C [JS18] ) = 18

The compound listed as C=CC(=O)Nc1cc(-n2c(=O)ccc3cnc4ccc(-c5ccc(NS(C)(=O)=O)cc5)cc4c32)ccc1OC [JS9E] has a reported PAMPA/%R membrane retention of 55

According to the records, this compound C=CC(=O)Nc1cc(-n2c(=O)ccc3cnc4ccc(-c5ccc(NS(C)(=O)=O)cc5)cc4c32)ccc1C [BMX-IN-1, reference compound] displays PAMPA/%R membrane retention of 55

PAMPA/%R membrane retention recorded for this compound, C=CC(=O)Nc1cc(-n2c(=O)ccc3cnc4ccc(N5CCN(S(C)(=O)=O)CC5)cc4c32)ccc1C [JS22] , is 19

Record summary for C=CC(=O)Nc1ccc(C)c(-n2c(=O)ccc3cnc4ccc(-c5ccc(NS(C)(=O)=O)cc5)cc4c32)c1 [JS9C] : reported PAMPA/%R membrane retention = 51

====

Attribute: Average Tm of BMX with compound
- testTarget: recombinant human BMX protein (hBMX) (Homo sapiens)
- Construct: Crystallization, data collection, and structure determination of BMX catalytic domain in; made in house; host or cells: Sf-9 insect cells
- measurementDescription: Differential scanning fluorimetry (DSF)
- Type: binding
- conditionSummary: 100 μM compound; apo-BMX Tm 51.8-52.2 °C
Write the value in °C as a bare number.

| molecule | numericResult |
| --- | --- |
| C=CC(=O)Nc1cc(C)cc(-n2c(=O)ccc3cnc4ccc(-c5ccc(NS(C)(=O)=O)cc5)cc4c32)c1 [JS9B] | 59.68 |
| C=CC(=O)Nc1cc(-n2c(=O)ccc3cnc4ccc(-c5ccncc5)cc4c32)ccc1C [JS17] | 59.55 |
| C=CC(=O)Nc1cc(-n2c(=O)ccc3cnc4ccc(-c5cccc(NS(C)(=O)=O)c5)cc4c32)ccc1C [JS15] | 60.72 |
| C=CC(=O)Nc1cc(-n2c(=O)ccc3cnc4ccc(-c5ccc(NS(=O)(=O)CCCC)cc5)cc4c32)ccc1C [JS14] | 59.53 |
| C=CC(=O)Nc1cc(-n2c(=O)ccc3cnc4ccc(N5CCN(S(C)(=O)=O)CC5)cc4c32)ccc1C [JS22] | 60.72 |

Next molecule, please.
Per the record, C=CC(=O)Nc1cc(-n2c(=O)ccc3cnc4ccc(N5CCCCC5)cc4c32)ccc1C [JS20] has Average Tm of BMX with compound of 59.29

====

- testTarget: recombinant human BMX protein (hBMX) (Homo sapiens, UniProt P51813)
- Construct: Crystallization, data collection, and structure determination of BMX catalytic domain in; made in house; host or cells: Sf-9 insect cells
- measurementDescription: Differential scanning fluorimetry (DSF)
- Format: binding
- conditionSummary: 100 μM compound; apo-BMX Tm 51.8-52.2 °C
quantity: Average Tm of BMX with compound

Field: example entries. Status: answers known.
| molecule | quantity | result |
| --- | --- | --- |
| C=CC(=O)Nc1cc(-n2c(=O)ccc3cnc4ccc(N5CCC(N(C)C)CC5)cc4c32)ccc1C | Average Tm of BMX with compound | 60.59±0.11 °C |
| C=CC(=O)Nc1cc(-n2c(=O)ccc3cnc4ccc(-c5ccc(NS(C)(=O)=O)cc5)cc4c32)ccc1C [BMX-IN-1, reference compound] | Average Tm of BMX with compound | 60.17±0.32 °C |
| C=CC(=O)Nc1cc(C)cc(-n2c(=O)ccc3cnc4cc(-c5ccc(NS(C)(=O)=O)cc5)ccc4c32)c1 | Average Tm of BMX with compound | 61.43±0.48 °C |

Note: attention shifts to another entry.
Briefly, Average Tm of BMX with compound measured for "C=CC(=O)Nc1cccc(-n2c(=O)ccc3cnc4cc(-c5ccc(NS(C)(=O)=O)cc5)ccc4c32)c1" : 61.47±0.21 °C

====

- testTarget: BMX (Homo sapiens, UniProt P51813)
- Sequence (P51813 1-675): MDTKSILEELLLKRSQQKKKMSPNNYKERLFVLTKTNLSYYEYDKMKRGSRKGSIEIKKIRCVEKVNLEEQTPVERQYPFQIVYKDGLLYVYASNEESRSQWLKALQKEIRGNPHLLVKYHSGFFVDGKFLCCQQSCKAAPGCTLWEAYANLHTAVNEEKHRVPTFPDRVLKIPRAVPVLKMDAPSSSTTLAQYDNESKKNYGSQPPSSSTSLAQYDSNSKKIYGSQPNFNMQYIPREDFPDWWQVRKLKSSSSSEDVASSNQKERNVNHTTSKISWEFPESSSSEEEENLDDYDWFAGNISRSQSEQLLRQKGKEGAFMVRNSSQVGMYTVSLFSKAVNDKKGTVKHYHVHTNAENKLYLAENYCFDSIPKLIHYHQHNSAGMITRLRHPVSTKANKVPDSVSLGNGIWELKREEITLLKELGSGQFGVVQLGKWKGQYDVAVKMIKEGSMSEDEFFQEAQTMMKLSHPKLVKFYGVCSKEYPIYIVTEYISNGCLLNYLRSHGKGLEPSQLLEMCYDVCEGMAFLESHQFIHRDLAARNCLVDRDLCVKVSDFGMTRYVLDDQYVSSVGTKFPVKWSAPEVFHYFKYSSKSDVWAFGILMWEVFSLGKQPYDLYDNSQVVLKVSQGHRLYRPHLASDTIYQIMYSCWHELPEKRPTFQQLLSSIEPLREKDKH
- measurementDescription: BMX biochemical activity assay (HTRF, phosphorylation of a biotinylated peptide)
- conditionSummary: Experiment 2 of Fig. S3; control commercial BMX-IN-1; read-out: BMX IC50
# pIC50 values compiled below
pIC50 is a log-scale quantity: -log10 of the concentration expressed in molar.

Worked set:
| compound | numericResult |
| --- | --- |
| C=CC(=O)Nc1cc(-n2c(=O)ccc3cnc4ccc(-c5ccc(C#N)nc5)cc4c32)ccc1C | 6.85 |
| C=CC(=O)Nc1cc(-n2c(=O)ccc3cnc4ccc(N5CCCCC5)cc4c32)ccc1C | 7.38 |
| C=CC(=O)Nc1cc(-n2c(=O)ccc3cnc4ccc(-c5ccc(NS(=O)(=O)CCCC)cc5)cc4c32)ccc1C | 6.05 |

The molecule listed as "C=CC(=O)Nc1cc(-n2c(=O)ccc3cnc4cc(-c5ccc(NS(C)(=O)=O)cc5)ccc4c32)ccc1C" shows pIC50 equal to 8.39

response.value for "C=CC(=O)Nc1cc(-n2c(=O)ccc3cnc4ccc(Br)cc4c32)ccc1C" (field: pIC50) = 7.36

====

Catalogue of compounds with associated PAMPA/%R membrane retention
- conditionSummary: pH 6.8
Could you write the number and then its unit?

Lab note: C=CC(=O)Nc1cc(-n2c(=O)ccc3cnc4cc(-c5ccc(NS(C)(=O)=O)cc5)ccc4c32)ccc1C [JS24] gave PAMPA/%R membrane retention of 13±1%

Entry C=CC(=O)Nc1cc(C)cc(-n2c(=O)ccc3cnc4ccc(-c5ccc(NS(C)(=O)=O)cc5)cc4c32)c1 [JS9B] ; PAMPA/%R membrane retention = 35±7%

C=CC(=O)Nc1cccc(-n2c(=O)ccc3cnc4cc(-c5ccc(NS(C)(=O)=O)cc5)ccc4c32)c1 [JS26] yielded PAMPA/%R membrane retention of 8±14%

For this compound ( C=CC(=O)Nc1cc(-n2c(=O)ccc3cnc4ccc(Br)cc4c32)ccc1C [JS29] ), measured PAMPA/%R membrane retention is 1±1%

So, C=CC(=O)Nc1cc(-n2c(=O)ccc3cnc4ccc(-c5ccncc5)cc4c32)ccc1C [JS17] ? Its PAMPA/%R membrane retention was 10±3%

So for C=CC(=O)Nc1cccc(-n2c(=O)ccc3cnc4ccc(-c5ccc(NS(C)(=O)=O)cc5)cc4c32)c1 [JS9D] , the logged PAMPA/%R membrane retention turned out to be 48±3%
